Just for reference, paper PMC4072508 is where these values come from.

The entries below are paired with their reported SPOT signal as a fraction of Bim BH3's signal on the same receptor and array.
Biological target: T1, Bfl-1, Q16548
T1 chain: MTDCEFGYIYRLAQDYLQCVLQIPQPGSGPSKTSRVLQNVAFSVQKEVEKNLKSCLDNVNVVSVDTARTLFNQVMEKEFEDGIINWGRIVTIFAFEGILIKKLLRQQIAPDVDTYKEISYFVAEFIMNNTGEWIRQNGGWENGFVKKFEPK
Assay: peptide SPOT array, c-Myc-tagged receptor at 1 uM or 100 nM, anti-c-Myc-Cy3

Solved entries (count: 8):
BINDER	READOUT_VALUE
VLAPVQLGKWDVLFCDEINLPDMDKY [DYNC1H1]	0.07
ISSYMVLAPVFGYLGDRYNRKYLMCG [SPNS1]	1.2
ADVHGIWSRLFCDFGDEFEVLDTTGE [UBA6]	0.04
LNLLMISVAFLRVIGDQLEKLCDSLL [SLC38A8]	0.05
SQGKHGFTMADNAFGDMTNEEFRQMM [CTSL2]	0.05
LTETSLISGNLHRIGDITSCSVLWLN [FBXW5]	0.04
EQWAREIGAQLRRMLDDLNAQYERRR [BBC3]	0.09
LWAAQRYGREDRRMSDEFVDSFKKGL [BAD]	0.3

Record summary for PDKRLTLSQIDQYVADNFPFYNKSKA [FOXI1] : reported SPOT signal as a fraction of Bim BH3's signal on the same receptor and array = 0.42

GET /value?item= NGGLLEFHKSLQEIGDKNDHWFDIDP [DZIP3] &field=SPOT signal as a fraction of Bim BH3's signal on the same receptor and array returns 0.04

Please fill in: SPOT signal as a fraction of Bim BH3's signal on the same receptor and array reported for FGEYSGISENIILVLDDFWIPETSFI [ROS1] = 0.04

The value of SPOT signal as a fraction of Bim BH3's signal on the same receptor and array measured for the binder CGEWTRRSLHLRVLGRQLILPTDKGV turned out to be 0.7

binder SGEFARICRDLSHIGDAVVISCAKDG [PCNA] , SPOT signal as a fraction of Bim BH3's signal on the same receptor and array observed: 0.03

Reported SPOT signal as a fraction of Bim BH3's signal on the same receptor and array of SGLPGLSSVDDNNFGDSINESEGIPL [MKI67] : 0.04

Recorded result, LDFTFVCPTEIIAFGDRLEEFRSINT [PRDX4] , SPOT signal as a fraction of Bim BH3's signal on the same receptor and array: 0.03

What the record says about RIEERKAIIGLYNYAHEMTHGASDRE [NCKAP1] : SPOT signal as a fraction of Bim BH3's signal on the same receptor and array is 0.03

So, QEQEQHVPFDIHTYLDQLVSRFPQLN [NCAPH2] ? Its SPOT signal as a fraction of Bim BH3's signal on the same receptor and array was 0.04

Notebook: WVKSIRICTPDGKLGDSCHPLTRKVP [PROK2] , SPOT signal as a fraction of Bim BH3's signal on the same receptor and array read as 0.47

Per the record, SKEVAILCSFDLGLGDSCFNTQLLSI [MFSD11] has SPOT signal as a fraction of Bim BH3's signal on the same receptor and array of 0.03

The binder PSECETLGSNDGHNADLLNENNILAK [ZFP90] showed SPOT signal as a fraction of Bim BH3's signal on the same receptor and array equal to 0.04

Just so you know, measured SPOT signal as a fraction of Bim BH3's signal on the same receptor and array for YFKLFRASGDMRTNGDNYLYEIQLSS came out at 0.47

Lab note: measured SPOT signal as a fraction of Bim BH3's signal on the same receptor and array of APGEEDLCAAFNVILDNVGKDWRRLA [FADD] was 0.04

Data point: CGEWTRRSLHDRVLGRQLILPTDKGV ; SPOT signal as a fraction of Bim BH3's signal on the same receptor and array = 0.86

SPOT signal as a fraction of Bim BH3's signal on the same receptor and array reading for MRSQLGKATALAIMLDKLWWADQVSE [LRP1] : 0.09

Entry under test: YFKLFRASGDDRTNGDNYLYEIQLSS . Its SPOT signal as a fraction of Bim BH3's signal on the same receptor and array was 0.29
